- assaySystem: recombinant human ICAM1 (human, UniProt P05362 28-480, limits assumed)
- Sequence (P05362 28-480 limits assumed): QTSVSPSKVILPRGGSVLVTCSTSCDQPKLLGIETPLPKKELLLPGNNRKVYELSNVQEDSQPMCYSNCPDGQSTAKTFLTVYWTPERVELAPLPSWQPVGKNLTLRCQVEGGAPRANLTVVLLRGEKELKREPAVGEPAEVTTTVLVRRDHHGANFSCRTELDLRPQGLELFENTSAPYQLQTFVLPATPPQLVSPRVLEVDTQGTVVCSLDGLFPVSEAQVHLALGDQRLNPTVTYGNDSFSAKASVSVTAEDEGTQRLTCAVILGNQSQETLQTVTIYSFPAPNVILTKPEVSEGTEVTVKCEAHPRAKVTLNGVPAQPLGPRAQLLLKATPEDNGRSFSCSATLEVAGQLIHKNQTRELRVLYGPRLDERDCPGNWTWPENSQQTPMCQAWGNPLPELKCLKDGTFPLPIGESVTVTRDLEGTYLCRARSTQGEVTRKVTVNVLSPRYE
- assayRemarks: SPR (Biacore 8K), antibody captured, antigen injected
quantityName: Kd (nM)
Give your result in nM as a bare value.

15D10 (antibody, human IgG1, kappa, V domains shown, Rabbit-human chimeric anti-ICAM1: rabbit VH and VL on human IgG1 and kappa constant regions) VH: QSVEESGGRLVTPGTPLTLTCTASGFSLNNYYMSWVRQAPGKGLEWIGIISDSDNTYYASWAKGRFTISKTSTTVDLKITSPTTEDTATYFCARDWSLDSSSGYYYYDMDLWGPGTLVTVSA VL: AYDMTQTPASMEVAVGGTVTIKCQASQNIHSWLAWFQQKPGQPPKRLIYKASTLASGVPSRFKGSGSGTQFTLTISGVQSDDAATYYCQQGYSRSDGEHVFGGGTEVVVKR = 2.12
14H1 (antibody, human IgG1, kappa, V domains shown, Rabbit-human chimeric anti-ICAM1: rabbit VH and VL on human IgG1 and kappa constant regions) VH: QSVEESGGRLVTPGTPLTLTCTVSGFSLSNYYMSWVRQAPGKGLEWIGIISDSGSTYYASWAKGRFTISKTSTTVDLSITSPTTEDTATYFCARDWSYDSTSGYYYYDMDLWGPGTLVTVSA VL: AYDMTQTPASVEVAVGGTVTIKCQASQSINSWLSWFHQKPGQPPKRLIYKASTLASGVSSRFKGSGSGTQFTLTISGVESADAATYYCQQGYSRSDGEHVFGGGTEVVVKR = 1.62
Anti-ICAM1 G12 (antibody, human IgG1, lambda, V domains shown, Human IgG1 with a lambda light chain; also called anti-ICAM1 clone G12) VH: QVQLQESGGGLVQPGGSLRLSCAASGFTFSSYAMSWVRQAPGKGLEWVSAISGSGGSTYYADSVKGRFTISRDNSKNTLYLQMSSLRAEDTAFYYCANSAYTGGWYDYWGHGTLVTVSS VL: ASELTQDPAVSVALGQTVKITCQGDSLRTYYASWYQQRPGQAPVLVIYGENSRPSGIPDRFSGSSSGNTASLTITGAQAEDEADYYCNSRDSSGNHLRVFGGGTKLTVLG = 12.2

Problem: For 8H1 (antibody, human IgG1, kappa, V domains shown, Rabbit-human chimeric anti-ICAM1: rabbit VH and VL on human IgG1 and kappa constant regions) VH: QSVEESGGRLVTPGTPLTLTCTASGFSLSNYYMSWVRQAPGKGLEWIGIISDSGSTYYASWAKGRFTISKTSTTVDLKITSPTTEDTATYFCARDWSYDSSSGYYYYDMDLWGPGTLVTVSA VL: GYDMTQTPASVEVAVGGTVTIKCQASQSINSWLAWFQHKPGQPPKRLIYKASTLASGVSSRFKGSGSGTQFTLTISGVESADAATYYCQQGYSRSDGEHVFGGGTEVVVKR , what is its reported Kd?
Solution: 3.1
